# experimental.target: Macaca fascicularis IL-36R extracellular domain expressed with a C-terminal myc-myc-hexahistidine tag (Macaca fascicularis)
# test: SPR Biacore T200, mAb captured by anti-hFc, 37C, PBS-T pH 6.0
Catalogue of t½ readings, one per entry.
// units = min; emit number, no label

# example entries with known answers
* H4H14709P (antibody, human IgG4 S228P, kappa, V domains shown) VH: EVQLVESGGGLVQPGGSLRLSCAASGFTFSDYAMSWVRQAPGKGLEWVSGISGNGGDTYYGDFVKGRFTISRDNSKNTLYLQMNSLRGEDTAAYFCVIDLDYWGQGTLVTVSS VL: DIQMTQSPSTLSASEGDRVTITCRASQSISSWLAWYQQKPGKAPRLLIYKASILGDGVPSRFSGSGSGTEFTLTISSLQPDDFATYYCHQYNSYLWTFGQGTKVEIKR | 4
* H4H14728P (antibody, human IgG4 S228P, kappa, V domains shown) VH: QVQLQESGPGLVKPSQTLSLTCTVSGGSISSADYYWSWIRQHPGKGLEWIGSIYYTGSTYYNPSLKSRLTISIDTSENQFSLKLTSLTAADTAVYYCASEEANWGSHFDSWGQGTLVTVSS VL: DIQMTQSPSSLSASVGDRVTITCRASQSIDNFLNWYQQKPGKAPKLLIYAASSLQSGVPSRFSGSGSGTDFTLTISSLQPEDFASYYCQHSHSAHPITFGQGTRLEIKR | 6

Item: H4H14700P2 (antibody, human IgG4 S228P, kappa, V domains shown) VH: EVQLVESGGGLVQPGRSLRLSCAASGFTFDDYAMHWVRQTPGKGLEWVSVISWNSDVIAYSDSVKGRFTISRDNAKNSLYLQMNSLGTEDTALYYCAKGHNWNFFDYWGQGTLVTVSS VL: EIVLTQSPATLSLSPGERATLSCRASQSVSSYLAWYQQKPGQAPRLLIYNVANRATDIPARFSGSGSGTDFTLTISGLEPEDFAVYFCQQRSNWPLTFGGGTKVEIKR | t½: 3

Item: H4H14731P (antibody, human IgG4 S228P, kappa, V domains shown) VH: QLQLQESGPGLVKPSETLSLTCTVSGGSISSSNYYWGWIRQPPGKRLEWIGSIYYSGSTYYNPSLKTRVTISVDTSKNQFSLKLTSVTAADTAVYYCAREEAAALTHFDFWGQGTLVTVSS VL: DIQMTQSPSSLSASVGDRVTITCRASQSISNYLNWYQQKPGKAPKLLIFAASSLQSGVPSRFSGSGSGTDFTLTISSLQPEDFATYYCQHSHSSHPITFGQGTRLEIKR | t½: 2
